Molecular target: Ras farnesyl transferase (Rattus norvegicus, UniProt Q02293+Q04631)
Construct: endogenous in cells; host or cells: Rat2 fibroblasts transformed with H-Ras or with an H-Ras/K-Ras C-terminus fusion
Experiment: In vivo (cellular) inhibitory activity for Ras farnesyl transferase, Rat2 cell line transformed with fused protein of H-Ras substituted with polybasic lysine domain at C-terminus of K-Ras
Type: cell-based
Details: Rat2 cell line transformed with H-Ras fused with polybasic lysine domain of K-Ras C-terminus; concentration inhibiting 50% of farnesyl bonding; read-out: K-Ras CIC50
pIC50: −log10 of the molar value.
reportedEndpoint: pIC50

Query: Determine reported pIC50 for CSCC[C@H](NC(=O)c1cn(Cc2c[nH]cn2)cc1-c1cccc2ccccc12)C(=O)O ; test system: Ras farnesyl transferase (Rattus norvegicus, UniProt Q02293+Q04631).
Reply: 4.00 to 5.00

Query: Determine reported pIC50 for O=C(c1cn(Cc2c[nH]cn2)cc1-c1cccc2ccccc12)N1CCNCC1 ; test system: Ras farnesyl transferase (Rattus norvegicus, UniProt Q02293+Q04631).
Reply: 4.00 to 5.00

Query: Determine reported pIC50 for COC(=O)c1sc(Cc2cncn2CC2CCN(C(=O)OCc3ccccc3)CC2)nc1-c1cccc2ccccc12 ; test system: Ras farnesyl transferase (Rattus norvegicus, UniProt Q02293+Q04631).
Reply: < 4.30

Query: Determine reported pIC50 for CN1CCN(C(=O)c2cn(Cc3cncn3Cc3ccc4ccccc4c3)cc2-c2cccc3ccccc23)CC1 ; test system: Ras farnesyl transferase (Rattus norvegicus, UniProt Q02293+Q04631).
Reply: 4.70 to 5.00

Ref: patent US6472526B1
